measured on: rat TAAR1 (Rattus norvegicus (Rat), UniProt Q923Y9)
Sequence (Q923Y9 whole entry): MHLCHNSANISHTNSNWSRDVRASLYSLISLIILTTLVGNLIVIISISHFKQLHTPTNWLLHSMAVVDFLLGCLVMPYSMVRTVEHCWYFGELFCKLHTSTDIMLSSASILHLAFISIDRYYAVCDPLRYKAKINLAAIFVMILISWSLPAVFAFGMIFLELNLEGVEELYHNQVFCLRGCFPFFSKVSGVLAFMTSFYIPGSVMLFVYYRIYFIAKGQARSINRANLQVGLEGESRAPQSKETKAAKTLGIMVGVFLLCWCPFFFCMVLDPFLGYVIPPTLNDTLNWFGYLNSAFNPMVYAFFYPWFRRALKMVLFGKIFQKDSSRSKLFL
assay procedure: Radioligand binding assay on rat TAAR1
condition context: rat TAAR1 (second value of the cell), HEK-293 membranes; read-out: Ki (μM) mouse/rat
measure name: Ki (µM)

> print(dat)
                                compound  units.of.measure  reported.value
1  Fc1cc([C@@H]2CNCCO2)ccc1Nc1ncc(Cl)cn1                µM          0.0199

[I] Fc1cc(Nc2nccc(OCC(F)(F)F)n2)ccc1[C@@H]1CNCCO1
[II] c1ccc2cc(Nc3ccc([C@H]4CNCCO4)cc3)ccc2c1
Hi! Which is lower in terms of Ki, the first one I or the second one II ? State the label of the item chosen.
I
(I: 0.0035 µM, II: 0.0118 µM)

[P] Fc1cc([C@@H]2CNCCO2)ccc1Nc1ncc(C(F)(F)F)cn1
[Q] CCOc1cnc(Nc2ccc([C@@H]3CNCCO3)cc2)nc1
[R] CCc1cnc(Nc2ccc([C@H]3CNCCO3)cc2C)nc1
[S] c1cc([C@H]2CNCCO2)ccc1Nc1ncc2c(n1)CCCC2
[T] Cc1cc(C2CNCCO2)ccc1Nc1ccc(Br)cn1 (racemic)
Ascending by Ki, please: list the compounds accordingly. Put the labels in the order asked and list them.
P, S, T, R, Q

[P] CCOc1cnc(Nc2ccc([C@H]3CNCCO3)cc2)nc1
[Q] FC(F)(F)c1nccc(Nc2ccc([C@@H]3CNCCO3)cc2)n1
Hi! Which is lower in terms of Ki, the first one P or the second one Q ? State the label of the item chosen.
Q
(Q: 0.0588 µM, P: 0.155 µM)
